Listed below: inhibition values for each entry.
- test-target: Serine/threonine-protein kinase Nek9 (Homo sapiens) (UniProt Q8TD19);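 note: reported value is the mean percent inhibition of NEK9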
- Sequence (Q8TD19 whole entry): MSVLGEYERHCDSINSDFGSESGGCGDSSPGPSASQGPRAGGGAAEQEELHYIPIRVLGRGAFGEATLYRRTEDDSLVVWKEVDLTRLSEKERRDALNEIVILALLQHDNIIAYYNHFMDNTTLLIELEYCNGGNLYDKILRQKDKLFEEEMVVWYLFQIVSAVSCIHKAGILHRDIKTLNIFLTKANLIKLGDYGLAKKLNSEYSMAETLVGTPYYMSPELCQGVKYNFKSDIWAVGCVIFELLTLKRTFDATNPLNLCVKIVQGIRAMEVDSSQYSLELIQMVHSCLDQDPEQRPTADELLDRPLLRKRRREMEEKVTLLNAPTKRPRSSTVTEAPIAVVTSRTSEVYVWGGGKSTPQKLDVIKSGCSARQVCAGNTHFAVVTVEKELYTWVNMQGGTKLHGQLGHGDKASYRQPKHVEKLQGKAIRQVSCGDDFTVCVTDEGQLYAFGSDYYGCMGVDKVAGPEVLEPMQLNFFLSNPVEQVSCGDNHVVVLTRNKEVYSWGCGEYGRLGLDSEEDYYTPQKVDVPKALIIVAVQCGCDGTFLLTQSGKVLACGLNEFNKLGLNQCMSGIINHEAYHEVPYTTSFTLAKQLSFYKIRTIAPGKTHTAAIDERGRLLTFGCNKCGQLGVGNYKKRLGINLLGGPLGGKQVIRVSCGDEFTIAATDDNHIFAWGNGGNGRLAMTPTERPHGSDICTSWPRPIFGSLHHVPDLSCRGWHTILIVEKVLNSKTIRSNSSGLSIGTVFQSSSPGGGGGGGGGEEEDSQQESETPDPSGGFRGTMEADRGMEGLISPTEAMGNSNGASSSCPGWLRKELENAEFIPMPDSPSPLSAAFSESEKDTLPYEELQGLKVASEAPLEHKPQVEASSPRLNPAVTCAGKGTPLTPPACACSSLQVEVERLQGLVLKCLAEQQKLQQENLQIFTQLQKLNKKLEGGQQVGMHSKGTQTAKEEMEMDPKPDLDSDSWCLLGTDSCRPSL
- assay-conditions: at 0.1 µM
// units = %; emit number, no label

Below, 4 compounds whose answers are already recorded.
COc1ccc(-c2cc(-c3c[nH]nc3-c3ccccn3)ccn2)cc1: 7.56
Fc1cccc(COc2ccc(Nc3ncnc4sc(-c5ccco5)cc34)cc2Cl)c1: 10.3
COc1ccc2[nH]c3c4[nH]c5ccc(OC)cc5c4c4c(c3c2c1)C(=O)NC4=O: 2.96
CS(=O)(=O)CCNCc1coc(-c2ccc3ncnc(Nc4ccc(OCc5ccccc5)cc4)c3c2)c1: 8.97

Switching to the query record.
For record COc1ccc(-c2cc3c(N)ncnc3o2)cc1 the listed inhibition is 4.69
